Data provenance is PubChem BioAssay (NCI).

# Tested on: HL-60(TB) leukemia
# Assay notes: NCI tumour cell line growth inhibition, 48 h
GI50 values, listed per item

{"Compound": "COc1cc(-c2nc(Nc3nc4ccccc4[nH]3)nc(N)c2C#N)cc(OC)c1OC", "GI50": "0.991 µM"}
{"Compound": "COC(=O)NC1C(C)OC(OC2C/C=C(/C)C3C=CC4C(OC5CC(OC6CC(O)C(OC7CC(O)C(OC)C(C)O7)C(C)O6)C(O)C(C)O5)C(C)CC(C)C4C3(C)/C(O)=C3\\C(=O)OC4(CC(C)C(CO)=CC4/C=C\\2C)C3=O)CC1(C)[N+](=O)[O-] (configuration not stated)", "GI50": "7.94 µM"}
{"Compound": "COc1cc(NS(C)(=O)=O)ccc1Nc1c2ccc(Cl)cc2nc2c(OC)cccc12", "GI50": "0.0313 µM"}
{"Compound": "CC1=CC(=NC(=O)CBr)C=C/C1=N\\S(=O)(=O)c1ccccc1", "GI50": "2.78 µM"}
{"Compound": "COC(=O)Nc1nc2ccc(Oc3ccc(NC(=O)Nc4cccc(C(=O)O)c4)cc3)cc2[nH]1", "GI50": "6.1 µM"}
{"Compound": "CC(C)=CCC[C@H](C)[C@@H]1CC[C@]2(C)C3CC[C@]4(OC4(C)C)C(CCCO)[C@]3(C)CC[C@@]12C (some centres not stated)", "GI50": "20.7 µM"}
{"Compound": "C[n+]1c(/C=C\\c2ccc(Cl)cc2)ccc2ccccc21", "GI50": "24.2 µM"}
{"Compound": "Cc1cc(N2CCCCC2)nc(N(CCCNc2ccnc3cc(Cl)ccc23)Cc2ccco2)n1", "GI50": "1.94 µM"}
{"Compound": "CC1=C[C@H]2c3c(c(O)c(O)c4oc5c(C)cccc5c(=O)c34)[C@H](c3cc(O)c(O)c4oc5c(C)cccc5c(=O)c34)[C@H]2C(C)(C)C1", "GI50": "3 µM"}
{"Compound": "CCC(C)(C)C(=O)O[C@H]1C[C@@H](C)C=C2C=C[C@H](C)[C@H](CC[C@@H]3C[C@@H](O)CC(=O)O3)[C@H]21", "GI50": "6.02 µM"}
{"Compound": "Cn1nccc1Nc1nccc(-c2cc3c(s2)C(C)(C)N(CCN2CCOCC2)C3=O)n1", "GI50": "0.499 µM"}
{"Compound": "O=C(Nc1ccccc1O)c1cccc(NC2=C(Cl)C(=O)N(Cc3ccccc3)C2=O)c1", "GI50": "1.5 µM"}
{"Compound": "CC(C)(C)NC(C1=CC(C)(C)c2ccccc2C1=O)c1ccccc1 (configuration not stated)", "GI50": "0.868 µM"}
{"Compound": "O=S(=O)(O)O.[NH-]C1CCCCC1[NH-].[Pt+2] (configuration not stated)", "GI50": "19.3 µM"}
{"Compound": "CC(=O)[CH-]C(=O)c1ccccc1.CC(=O)[CH-]C(=O)c1ccccc1.CC[O-].CC[O-].[Zr+4]", "GI50": "> 100 µM"}
{"Compound": "Cn1cc(C2=C(c3cccc4ccccc34)C(=O)NC2=O)c2ccccc21", "GI50": "10.4 µM"}
{"Compound": "COc1ccccc1OCC(=O)Nc1sc2c(c1C(N)=O)CCC2", "GI50": "> 100 µM"}
